Would you mind telling me the reported half-life at 1 µM of each entry?
# measurement target: UniProt P35503
# Sequence (P35503 29-534): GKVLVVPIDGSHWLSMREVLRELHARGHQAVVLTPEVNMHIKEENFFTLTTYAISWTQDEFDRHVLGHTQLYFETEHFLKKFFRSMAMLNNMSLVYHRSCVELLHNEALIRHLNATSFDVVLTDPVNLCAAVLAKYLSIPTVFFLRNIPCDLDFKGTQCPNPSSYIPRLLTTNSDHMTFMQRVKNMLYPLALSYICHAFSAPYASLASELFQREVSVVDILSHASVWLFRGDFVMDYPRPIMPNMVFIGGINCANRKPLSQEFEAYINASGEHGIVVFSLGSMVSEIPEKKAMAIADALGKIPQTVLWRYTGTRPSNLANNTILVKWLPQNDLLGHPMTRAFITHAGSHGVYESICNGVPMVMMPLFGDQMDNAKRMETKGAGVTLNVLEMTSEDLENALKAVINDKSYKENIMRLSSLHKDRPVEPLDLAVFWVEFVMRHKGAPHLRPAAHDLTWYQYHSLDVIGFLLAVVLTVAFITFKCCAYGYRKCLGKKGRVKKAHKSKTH
# protocol notes: in vitro
# test parameters: recombinant enzyme, pH 7.4
Give just the number in min; leave the unit off.

(Q) For UniProt P35503, give the measured half-life at 1 µM of the entry O=c1cc(C(F)(F)F)c2ccc(O)cc2o1 [7-OH4trifluoromethylcoumarin, 7-hydroxy-4-trifluoromethylcoumarin]
(A) 51.8

(Q) # return half-life at 1 µM for `CCCCCc1cc(O)c(C/C=C(\C)CCC=C(C)C)c(O)c1` , test system: UniProt P35503
(A) 44.1

(Q) Fill in half-life at 1 µM for `CCCCCc1cc(O)c(C/C=C(\C)CCC=C(C)C)c(OC)c1` tested with UniProt P35503.
(A) 108
